A short record of IC50 observed with UniProtKB P17948 follows.
Sequence (P17948 27-1338, species assumed): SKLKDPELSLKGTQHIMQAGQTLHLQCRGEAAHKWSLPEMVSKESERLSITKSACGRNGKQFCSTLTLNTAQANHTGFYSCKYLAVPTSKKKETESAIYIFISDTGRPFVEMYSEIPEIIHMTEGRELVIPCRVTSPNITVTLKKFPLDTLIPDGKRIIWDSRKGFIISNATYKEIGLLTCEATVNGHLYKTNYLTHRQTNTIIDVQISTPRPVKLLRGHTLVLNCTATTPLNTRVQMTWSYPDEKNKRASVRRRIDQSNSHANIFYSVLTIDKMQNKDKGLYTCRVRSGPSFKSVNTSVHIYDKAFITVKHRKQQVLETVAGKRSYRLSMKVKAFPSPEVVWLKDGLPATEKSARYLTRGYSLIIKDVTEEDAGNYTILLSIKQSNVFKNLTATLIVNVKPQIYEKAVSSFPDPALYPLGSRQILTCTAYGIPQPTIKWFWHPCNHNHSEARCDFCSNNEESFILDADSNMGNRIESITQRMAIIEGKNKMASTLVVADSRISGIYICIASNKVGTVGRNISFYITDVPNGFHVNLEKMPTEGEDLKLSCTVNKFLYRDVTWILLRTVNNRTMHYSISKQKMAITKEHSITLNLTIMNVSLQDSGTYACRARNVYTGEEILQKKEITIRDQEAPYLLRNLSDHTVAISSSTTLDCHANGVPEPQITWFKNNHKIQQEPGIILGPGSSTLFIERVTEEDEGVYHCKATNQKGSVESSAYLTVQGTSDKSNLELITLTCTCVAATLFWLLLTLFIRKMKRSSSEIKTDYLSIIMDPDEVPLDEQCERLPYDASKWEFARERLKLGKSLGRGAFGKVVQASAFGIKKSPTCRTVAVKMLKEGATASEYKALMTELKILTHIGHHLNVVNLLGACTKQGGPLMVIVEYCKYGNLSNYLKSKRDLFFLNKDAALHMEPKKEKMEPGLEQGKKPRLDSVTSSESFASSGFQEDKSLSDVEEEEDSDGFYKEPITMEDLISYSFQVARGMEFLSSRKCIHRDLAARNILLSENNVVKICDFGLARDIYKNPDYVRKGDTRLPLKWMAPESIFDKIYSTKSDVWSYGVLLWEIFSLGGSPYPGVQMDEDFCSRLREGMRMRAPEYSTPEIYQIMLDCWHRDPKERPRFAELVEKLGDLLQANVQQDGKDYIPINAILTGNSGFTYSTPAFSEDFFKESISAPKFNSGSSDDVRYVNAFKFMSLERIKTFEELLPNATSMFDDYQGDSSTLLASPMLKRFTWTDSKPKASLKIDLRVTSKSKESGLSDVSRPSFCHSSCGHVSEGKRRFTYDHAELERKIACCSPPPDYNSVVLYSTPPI

// known answers, use as guide
{"columns": ["compound", "IC50"],
 "data": [
  ["COc1cc(Nc2ncnc(-n3c(NCCc4ccccc4)nc4ccccc43)n2)cc(OC)c1OC [Compound 509]", "0.804 to 4.82 µM"],
  ["COc1cc(Nc2ncnc(Nc3cnc4ccccc4c3)n2)cc(OC)c1OC [Compound 99]", "0.989 to 5.93 µM"],
  ["COc1cc(Nc2ncnc(-n3c(Nc4cccc(C(N)=O)c4)nc4ccccc43)n2)cc(OC)c1OC [Compound 377]", "< 0.78 µM"],
  ["COc1cc(Nc2ncnc(Nc3ccccc3)n2)cc(OC)c1OC [Compound 91]", "< 1.13 µM"],
  ["C=CCNc1ncccc1-c1ncnc(Nc2cc(OC)c(OC)c(OC)c2)n1 [Compound 1076]", "1.01 to 6.08 µM"]
]}

Given the entry COc1cc(Nc2ncnc(Nc3cc(Cl)c(O)c(Cl)c3)n2)cc(OC)c1OC [Compound 68] , what IC50 was observed with UniProtKB P17948? < 0.913 µM

Notebook entry, UniProtKB P17948 assay: IC50 of COc1cc(Nc2ncnc(Nc3ccc(Cl)cc3)n2)cc(OC)c1OC [Compound 72] = ? < 1.03 µM

Find the measured IC50: item COc1cc(Nc2ncnc(Nc3ccc(C)cc3)n2)cc(OC)c1OC [Compound 930] , target or system UniProtKB P17948. 6.53 to 9.53 µM

// map COc1cc(Nc2ncnc(-n3c(Nc4ccccc4)nc4ccccc43)n2)cc(OC)c1OC [Compound 336] to recorded IC50 (system: UniProtKB P17948) < 0.852 µM

# value lookup — system UniProtKB P17948, readout IC50, item COc1cc(Nc2ncnc(-c3cccnc3NCc3ccccc3F)n2)cc(OC)c1OC [Compound 1087] > 9.73 µM

Observed IC50 on UniProtKB P17948 for COc1ccc(Nc2ncnc(-n3c(N)nc4ccccc43)n2)cc1 [Compound 656] , please. 1.2 to 7.2 µM

Lab note: need IC50 with UniProtKB P17948 for entry CC(=O)NS(=O)(=O)c1ccc(Nc2ncnc(-n3c(N)nc4ccccc43)n2)cc1 [Compound 440] , please look it up. 0.942 to 5.65 µM

---

- target: AKT (Homo sapiens)
- Construct: Kinases are expressed as either kinase domains or full length constructs; made in house
- Sequence (Q9Y243 whole entry, the tested form may be a part): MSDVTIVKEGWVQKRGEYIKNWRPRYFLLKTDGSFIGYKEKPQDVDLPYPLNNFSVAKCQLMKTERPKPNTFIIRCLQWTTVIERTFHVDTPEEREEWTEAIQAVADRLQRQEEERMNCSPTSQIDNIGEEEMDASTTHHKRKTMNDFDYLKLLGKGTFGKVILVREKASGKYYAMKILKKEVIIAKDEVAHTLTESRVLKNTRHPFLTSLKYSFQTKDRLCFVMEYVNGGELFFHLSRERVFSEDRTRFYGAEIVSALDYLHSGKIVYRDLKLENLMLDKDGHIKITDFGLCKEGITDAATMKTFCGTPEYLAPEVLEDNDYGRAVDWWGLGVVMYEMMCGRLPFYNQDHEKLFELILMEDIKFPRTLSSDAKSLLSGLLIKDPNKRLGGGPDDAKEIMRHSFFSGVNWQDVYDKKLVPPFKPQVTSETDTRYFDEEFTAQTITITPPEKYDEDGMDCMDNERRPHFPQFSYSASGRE
- experimentDescription: Kinase inhibition assay (33P transfer), AKT
- Type: biochemical
- measurementSetup: Table 2, kinase inhibition class; read-out: AKT3-1
pIC50: −log10 of the molar value.
quantity: pIC50

{"columns": ["compound", "pIC50"],
 "data": [
  ["COc1ccc(CNc2nc3ccccc3n2-c2ncnc(Nc3cc(OC)c(OC)c(OC)c3)n2)cc1OC [Compound 596]", "< 5.08"],
  ["COc1cc(Nc2ncnc(-n3c(Nc4ccc(F)cc4)nc4ccccc43)n2)cc(OC)c1OC [Compound 387]", "< 5.03"],
  ["COc1cc(Nc2ncnc(NC3CC3c3ccccc3)n2)cc(OC)c1OCCN1CCOCC1 (stereo not drawn) [Compound 563]", "< 5.04"],
  ["COc1cc(Nc2ncnc(Nc3[nH]ncc3-c3cccc(Cl)c3)n2)cc(OC)c1OC [Compound 999]", "< 5.00"],
  ["COc1cc(Nc2ncnc(-n3c(N)nc4ccccc43)n2)ccc1OCCn1ccnn1 [Compound 324]", "< 4.99"]
]}

Suppose we examine the compound COc1cc(Nc2ncnc(-c3cccc4ccccc34)n2)cc(OC)c1OC [Compound 611] ; what pIC50 value has been reported? < 4.94

# get_value(readout='pIC50', item= COc1ccc(Nc2ncnc(Nc3cc(OC)c(OC)c(OC)c3)n2)cc1 [Compound 89] ) < 4.93

Reported pIC50, compound COc1cccc(Nc2ncnc(Nc3ccc(OCc4ccccc4)cc3)n2)c1 [Compound 160] : ____ 4.95 to 5.06

---

- target: IGFR-1 (Homo sapiens)
- Construct: Kinases are expressed as either kinase domains or full length constructs; made in house
- Sequence (P08069 31-1367): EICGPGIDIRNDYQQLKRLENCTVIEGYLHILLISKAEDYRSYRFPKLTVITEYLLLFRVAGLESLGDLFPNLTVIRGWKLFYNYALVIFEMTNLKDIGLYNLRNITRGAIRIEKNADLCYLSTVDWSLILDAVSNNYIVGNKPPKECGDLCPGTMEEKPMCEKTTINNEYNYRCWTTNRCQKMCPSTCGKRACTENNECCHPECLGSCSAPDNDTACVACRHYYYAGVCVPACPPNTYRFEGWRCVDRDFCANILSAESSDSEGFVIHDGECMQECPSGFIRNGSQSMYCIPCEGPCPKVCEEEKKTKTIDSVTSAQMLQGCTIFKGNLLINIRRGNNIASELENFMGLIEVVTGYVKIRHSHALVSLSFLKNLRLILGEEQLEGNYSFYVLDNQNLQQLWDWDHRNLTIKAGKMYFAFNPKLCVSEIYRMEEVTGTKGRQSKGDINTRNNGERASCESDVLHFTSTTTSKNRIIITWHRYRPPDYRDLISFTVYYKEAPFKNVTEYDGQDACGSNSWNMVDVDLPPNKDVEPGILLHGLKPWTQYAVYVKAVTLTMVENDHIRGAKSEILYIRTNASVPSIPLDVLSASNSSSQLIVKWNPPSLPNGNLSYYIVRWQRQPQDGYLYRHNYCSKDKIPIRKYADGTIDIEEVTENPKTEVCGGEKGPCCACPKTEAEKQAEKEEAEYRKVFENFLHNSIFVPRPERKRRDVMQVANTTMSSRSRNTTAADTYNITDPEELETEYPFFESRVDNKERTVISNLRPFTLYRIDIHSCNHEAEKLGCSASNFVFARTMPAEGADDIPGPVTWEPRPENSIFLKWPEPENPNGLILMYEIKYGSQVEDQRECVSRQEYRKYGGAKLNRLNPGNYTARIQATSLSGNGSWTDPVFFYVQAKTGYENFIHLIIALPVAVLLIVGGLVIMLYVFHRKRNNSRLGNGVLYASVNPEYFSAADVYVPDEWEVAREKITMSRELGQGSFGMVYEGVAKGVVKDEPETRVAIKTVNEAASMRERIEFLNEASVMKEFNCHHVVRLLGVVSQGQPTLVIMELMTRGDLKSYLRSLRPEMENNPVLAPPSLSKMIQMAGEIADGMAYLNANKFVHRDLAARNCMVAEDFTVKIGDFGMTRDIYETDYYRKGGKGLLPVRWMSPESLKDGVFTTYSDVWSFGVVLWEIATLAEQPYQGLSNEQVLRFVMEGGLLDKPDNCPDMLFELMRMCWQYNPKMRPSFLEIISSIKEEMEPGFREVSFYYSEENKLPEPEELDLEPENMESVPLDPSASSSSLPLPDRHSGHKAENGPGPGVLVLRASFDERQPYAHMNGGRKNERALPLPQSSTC
- experimentDescription: Kinase inhibition assay, IGFR-1 (Table 2)
- Format: biochemical
- measurementSetup: Table 2, kinase inhibition class
pIC50: −log10 of the molar value.
quantity: pIC50

{"columns": ["molecularString", "quantity", "result"],
 "data": [
  ["CN(c1cccc(Cl)c1)c1ncnc(Nc2ccc3[nH]ccc3c2)n1", "pIC50", "5.16 to 5.94"],
  ["CC(C)(C)c1cc(Nc2ncnc(Nc3cccc(Cl)c3)n2)[nH]n1", "pIC50", "> 5.93"],
  ["Fc1ccc(Nc2ncnc(Nc3ccc4cn[nH]c4c3)n2)cc1Cl", "pIC50", "< 4.90"],
  ["COc1cc(Nc2ncnc(-n3c(NCCc4ccccc4)nc4ccccc43)n2)cc(OC)c1OC", "pIC50", "< 5.04"],
  ["CC(=O)Nc1ccc(Nc2ncnc(N3CCCc4cc(C)ccc43)n2)cc1", "pIC50", "< 4.92"],
  ["CCOc1cccc(Nc2ncnc(Nc3ccc(OC)c(OC)c3)n2)c1", "pIC50", "5.18 to 5.96"]
]}

GET /values?readout=pIC50&system=IGFR-1 (Homo sapiens)&item= `CN(c1cccc(Cl)c1)c1ncnc(Nc2ccc(C(F)(F)F)cc2)n1` < 4.93

// map `COc1cc(Nc2ncnc(Nc3cc(C(F)(F)F)ccc3F)n2)cc(OC)c1OC` to recorded pIC50 (system: IGFR-1 (Homo sapiens)) > 6.04

Write down the reported pIC50 of `COc1ccc(CNc2nc3ccccc3n2-c2ncnc(Nc3cc(OC)c(OC)c(OC)c3)n2)cc1OC` , test system: IGFR-1 (Homo sapiens). < 5.08

Find pIC50 (IGFR-1 (Homo sapiens)) for the entry `COc1ccc(Nc2ncnc(NC[C@@H]3CCCO3)n2)cc1OC` < 4.87

Record lookup: for IGFR-1 (Homo sapiens), what pIC50 belongs to `Cc1ccc2c(c1)CCCN2c1ncnc(NCc2ccccn2)n1` ? < 4.87

Give pIC50 (IGFR-1 (Homo sapiens)) of the following compound: `CN(c1cccc(Cl)c1)c1ncnc(Nc2ccc(F)c(C(F)(F)F)c2)n1` < 4.95

Please tell me: pIC50 of `COc1cc(Nc2ncnc(Nc3ccc4c(c3)CCC4)n2)cc(OC)c1OC` , system IGFR-1 (Homo sapiens)? > 5.99

Form field - read-out: pIC50; system: IGFR-1 (Homo sapiens); submitted item: `COc1cc(Nc2ncnc(-c3cccnc3N)n2)cc(OC)c1OC` < 4.90

For the record `COc1cc(Nc2ncnc(Nc3cc(F)cc(C(F)(F)F)c3)n2)cc(OC)c1OC` , what value of pIC50 is listed for IGFR-1 (Homo sapiens)? 5.26 to 6.04

Missing value: pIC50, IGFR-1 (Homo sapiens), entry `Cc1cccc(Nc2ncnc(N(C)c3cccc(Cl)c3)n2)c1` . Fill in? < 4.86

API: value(readout=pIC50, system=IGFR-1 (Homo sapiens)) for record `COc1cc(Nc2ncnc(N(C)c3ccc(Cl)cc3)n2)cc(OC)c1OC` 5.22 to 6.00

Quick check: pIC50 on IGFR-1 (Homo sapiens), item `COc1cc(Nc2ncnc(NC(=O)NCc3ccccc3)n2)cc(OC)c1OC` ? < 4.96

---

- target: AKT (Homo sapiens)
- Construct: Kinases are expressed as either kinase domains or full length constructs; made in house
- experimentDescription: Kinase inhibition assay (33P transfer), AKT
- Format: biochemical
- measurementSetup: Table 2, kinase inhibition class; read-out: AKT3-1
quantity: IC50

Study these solved cases before continuing.
{"columns": ["molecule", "IC50"],
 "data": [
  ["COc1cc(Nc2ncnc(-n3c(NCc4ccc(O)cc4)nc4ccccc43)n2)cc(OC)c1OC [Compound 561]", "> 9.01 µM"],
  ["COc1cc(Nc2ncnc(Nc3ccc(NC(=O)O[C@@H]4CCOC4)cc3)n2)cc(OC)c1OC [Compound 693]", "> 9.33 µM"],
  ["COc1cc(Nc2ncnc(Nc3ccc(OCc4ccccc4)cc3)n2)cc(OC)c1OC [Compound 926]", "> 9.79 µM"],
  ["CN(c1cccc(Cl)c1)c1ncnc(N[C@@H]2CCN(Cc3ccccc3)C2)n1 [Compound 755]", "> 11.4 µM"]
]}

Using the record for NC(=O)c1ccc(Nc2ncnc(-c3cccs3)n2)cc1 [Compound 354] , report its IC50. > 15.1 µM

Would you mind telling me what IC50 value was observed for COc1ccc(Nc2ncnc(-n3c(N)nc4ccccc43)n2)cn1 [Compound 648] ? > 13.5 µM

Tell me the measured IC50 of COc1cc(Nc2ncnc(Nc3ccc(N4CCOCC4)cc3)n2)cc(OC)c1OC [Compound 101] , please. > 10.3 µM

# query: IC50 of entry COc1cc(Nc2ncnc(-n3c(Nc4ccccc4)nc4ccccc43)n2)cc(OC)c1OC [Compound 336] > 9.58 µM

Entry COc1ncnc(Nc2cc(OC)c(OC)c(OC)c2)n1 [Compound 421] : reported IC50 = ? > 15.4 µM

# query: IC50 of entry Cc1ccc2c(c1)CCCN2c1ncnc(NCc2cccnc2)n1 [Compound 777] > 13.5 µM

Given the entry CCOC(=O)CNc1ncnc(N2CCCc3cc(C)ccc32)n1 [Compound 761] , report its measured IC50. > 13.7 µM

Give its IC50 value. Item: COc1cc(Nc2ncnc(-n3ccc4c(OC)cccc43)n2)cc(OC)c1OC [Compound 238] > 11 µM

// returns reported IC50 for input COc1cc(Nc2ncnc(-n3c(NC(C)=O)nc4ccccc43)n2)cc(OC)c1OC [Compound 334] 5.51 to 8.04 µM

What does the data say about its IC50? Entry: CCOc1cccc(Nc2ncnc(Nc3ccc(OC)c(OC)c3)n2)c1 [Compound 783] > 12.2 µM

Give its IC50 value. Item: COc1cc(Nc2ncnc(-n3c(=O)sc4cc(Br)ccc43)n2)cc(OC)c1OC [Compound 426] > 9.18 µM

Which IC50 reading was recorded for the molecule COc1cc(Nc2ncnc(-n3c(NCc4ccccn4)nc4ccccc43)n2)cc(OCCN2CCOCC2)c1OC [Compound 507] ? > 7.71 µM
